z-score reference
- assay.info: growth of efflux-deficient E. coli DRC39 – strain DRC39, OD650, 24 h, E. coli filamentation inducers, primary screen (AID 1178);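 note: growth measured as culture turbidity by optical density at 650 nm; test concentration not given here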
- measurement.setup: E. coli DRC39 acrAB, higher = more signal, called active from +8 up or from −8 down
Enter a number only.

{"compound": "C[C@@H]1NC(=O)C([C@@H](C)OCc2ccccc2)NC(=O)[C@@]23C(=O)N[C@@H](Cc4ccccc4)C2[C@H](C)[C@@]2(C)O[C@H]2C3/C=C/C/C=C\\CNC1=O (some centres not stated)", "z-score": -0.602}

Reported z-score for "O=C1C=C(c2ccccc2)C(=O)C2=C1CC([C@H]1Oc3ccccc3S(=O)(=O)N3CCC[C@@H]13)=CC2" was 0.0769

Field z-score (entry "CC(C)N1C(=O)c2ccccc2[C@@H](C(=O)NCC(F)(F)F)[C@@H]1c1ccc(CO)cc1" ) reads -0.196

Quick note, z-score for "C=CCNC(=O)[C@H]1[C@@H]2C(=O)O[C@@H](c3ccccc3)[C@@H](c3ccccc3)N2[C@@H](c2ccccc2OCCO)[C@]12C(=O)N(C(=O)OCCOC)c1ccc(C#Cc3ccc(OC)cc3)cc12" landed at -0.604

* * *

- System: Sonic hedgehog protein (Shh)
- assay.info: Sonic hedgehog microarray binding compounds – biochemical, small-molecule microarray, 635/667 nm fluorescence, primary screen (AID 1151);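 note: Shh protein binding to compounds spotted on small-molecule microarray slides; score combines spot fluorescence intensity with signal-to-noise across triplicate slides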
- measurement.setup: 635 nm fluorescence, higher = more signal
Decision: composite z-score compared against 0.8; not below it gives yes, below it gives no.

Example results:
{"compound": "CCOC(=O)C[C@H]1[C@H](OC(=O)Cc2ccc3c(c2)OCO3)[C@@H](NC(=O)c2ccc3ccccc3n2)c2cc(OCCCO)ccc2N1C(=O)Cc1ccc(OC)cc1", "answer.label": "yes"}
{"compound": "O=C1O[C@@H](c2ccccc2)[C@@H](c2ccccc2)N2[C@@H](c3ccccc3OCCO)[C@]3(C(=O)Nc4ccc(C#CCCO)cc43)[C@@H](C(=O)NC[C@H](O)c3ccccc3)[C@H]12", "answer.label": "yes"}
{"compound": "COCCOC(=O)N1C(=O)[C@@]2(c3ccccc31)[C@H](C(=O)N1CCN(c3ncccn3)CC1)[C@H]1C(=O)O[C@H](c3ccccc3)[C@H](c3ccccc3)N1[C@@H]2c1ccccc1OCCO", "answer.label": "yes"}

Ask: Please tell me: is the compound "C=C(CCCC)/C(=C/C[C@H](OC(C)=O)c1cccc(OCCO)c1)c1cnc2ccccc2c1" at or over 0.8 in terms of composite z-score?
Result: no

Ask: In plain terms: is recorded composite z-score at least 0.8 for CC(C)(C)N1CC=CC23O[C@@H]4C=CCCOC(=O)C4[C@H]2C(=O)N(CCCCCCO)[C@@H]3C1=O (stereo partly specified) ?
Result: yes

Ask: Identify whether the reported composite z-score of the following compound is 0.8 or greater: COc1ccc(C(O)C2C=CC3C(=O)N(c4ccccc4)C(=O)C3N2Nc2ccc(C#N)cc2)cc1OCc1ccccc1 (stereo unspecified)
Result: no

* * *

- Tested on: wheat germ agglutinin (Triticum aestivum), Alexa647-labelled
- assay.info: Alexa647-WGA lectin binding to printed small molecules – biochemical, small-molecule microarray, 635/667 nm fluorescence, artefact control for SMM control-protein annotation, profiling panel (AID 1140);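 note: score merges 667 nm feature emission with signal to noise over triplicate slides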
- measurement.setup: WGA-A647 binding, 635 nm fluorescence, higher = more signal
measured.attribute: composite z-score
Write no unit; give the number alone.

Examples with their reported composite z-score follow.
{"compound": "CC(=O)c1ccc(C(O)C2C=CC3C(=O)N(c4ccccc4)C(=O)C3N2Nc2ccc(C(C)C)cc2)cc1 (configuration not stated)", "composite z-score": 1.17}
{"compound": "CC(C)C(=C=CC[C@H](O)c1ccccc1OCCO)C[C@H](O)COCc1ccccc1", "composite z-score": 0.133}
{"compound": "COc1cc(C(O)C2C=CC3C(=O)N(c4ccccc4)C(=O)C3N2Nc2ccccc2F)cc(OC)c1OC (configuration not stated)", "composite z-score": 0.792}
{"compound": "CN(C)CCCCNC(=O)[C@H]1C[C@H]2C(=O)NCC(=O)N2[C@H]1c1ccc(O)cc1", "composite z-score": 1.08}
{"compound": "COCCOC(=O)N1C(=O)[C@@]2(c3cc(C#CCC(C(=O)OC)C(=O)OC)ccc31)[C@H](C(N)=O)[C@H]1C(=O)O[C@H](c3ccccc3)[C@H](c3ccccc3)N1[C@@H]2c1ccc(O)cc1", "composite z-score": 1.06}
{"compound": "CCCCCC1=C2CNC(CC(C)C)(C(=O)OC)C=C2C(C)C1=O (configuration not stated)", "composite z-score": 0.955}

We now examine a further compound.
Form field composite z-score, entry "COc1ccc(C#Cc2ccc3c(c2)[C@]2(C(=O)N3)[C@H](C(=O)O)[C@H]3C(=O)O[C@H](c4ccccc4)[C@H](c4ccccc4)N3[C@@H]2c2ccccc2OCCO)cc1" : 1.02

* * *

Examples of molecules with documented composite z-score follow.
- assay.info: probe aCHRDL2 binding to arrayed compounds – biochemical, biotinylated probe, 635/667 nm fluorescence, primary screen (AID 1100)
- measurement.setup: small-molecule microarray, higher = more signal
// return a plain number; no unit text

{"molecule": "COc1ccc(C(O)C2C=CC3C(=O)NC(=O)C3N2Nc2ccc(Cl)cc2Cl)c2ccccc12 (centres undefined)", "composite z-score": 1.15}
{"molecule": "COC(=O)C1(Cc2ccccc2)C=C2C(=C(C)C(=O)C2C)CN1 (centres undefined)", "composite z-score": 1.22}
{"molecule": "Cc1ccc(F)cc1S(=O)(=O)N[C@H]1CCN(Cc2ccc(OC(C)C)cc2)C1", "composite z-score": -0.747}
{"molecule": "CN(C)CCCCNC(=O)[C@H]1C[C@H]2C(=O)N3CCC[C@H]3C(=O)N2[C@H]1c1cccc(OCCO)c1", "composite z-score": 0.833}
{"molecule": "CN1C(=O)C2C(C3CC3)C=C3CN(Cc4cccc(Cl)c4)[C@@H]([C@@H](O)Cc4ccccc4)C3C2C1=O (some centres undefined)", "composite z-score": -0.534}

The molecule identified as CC1CC/C=C\[C@H]2OC34C=CCN(C(C)(C)C)C(=O)[C@H]3N(CCCO)C(=O)[C@@H]4C2C(=O)O1 (some centres undefined) registered its composite z-score at 0.4

Measured composite z-score, CN1C(=O)C2C=CC(C(O)c3ccc(-c4ccccc4)s3)N(NC(=O)OC(C)(C)C)C2C1=O (centres undefined) : 1.04

Quick note, composite z-score for CC(C)C[C@@H]1NC(=O)[C@@]23C(=O)N[C@@H](Cc4ccccc4)C2[C@H](C)[C@@]2(C)O[C@H]2C3/C=C/C/C=C\CNC(=O)CNC1=O (some centres undefined) landed at -0.51

composite z-score in this record for "C=CCOC(=O)[C@@H]1[C@H]2C(=O)O[C@H](c3ccccc3)[C@H](c3ccccc3)N2[C@H](c2ccc(OCCOC(=O)[C@H]3C[C@H]4C(=O)N5CCC[C@H]5C(=O)N4[C@H]3c3cccc(OCCO)c3)cc2)[C@@]12C(=O)Nc1ccc(I)cc12" : 0.0879

GET /value?item= CCCCCC1=C2CNC(CC(C)C)(C(=O)OC)C=C2C(C)C1=O (centres undefined) &field=composite z-score returns 0.952

Query "C=CCOC(=O)[C@H]1[C@@H]2C(=O)O[C@@H](c3ccccc3)[C@@H](c3ccccc3)N2[C@@H](c2ccc(OCCOC(=O)[C@@H]3C[C@@H]4C(=O)N[C@@H](CCCCNC(C)=O)C(=O)N4[C@@H]3c3cccc(OCCO)c3)cc2)[C@]12C(=O)Nc1ccccc12" yields composite z-score of 0.042

Consider "O=C1O[C@H](Cc2ccccc2)[C@@H]2[C@H]3C=CCCC=C3CN2[C@H]1Cc1ccc(O)cc1" . Its measured composite z-score is -0.0179

Value of composite z-score reported for the molecule "CCOC(=O)C1=CC[C@@H](c2ccc(OC)cc2)N(S(=O)(=O)c2ccc(C)cc2)[C@H]1CC" is 0.88

* * *

# key: entry, value: composite z-score
- assay.info: probe aCHRDL2 binding to arrayed compounds – biochemical, biotinylated probe, 635/667 nm fluorescence, primary screen (AID 1100)
- measurement.setup: small-molecule microarray, higher = more signal
Quick one: just the number, no unit, thanks!

composite z-score recorded for this compound, CN1C(=O)C2C(C1=O)C1C=C(c3ccc(CO)cc3)C2C(C2CC2)N1C (stereo not given) , is 0.0977

# compound "CCCNC(=O)[C@@]1(c2ccc([N+](=O)[O-])cc2)CC(=O)N(C(C)C)[C@@H]1c1ccc(CO)cc1" ; its composite z-score = 0.985

Lab note: CC1CC/C=C\[C@H]2OC34C=CCN(Cc5ccccc5)C(=O)[C@H]3N(CCCCCCO)C(=O)[C@@H]4C2C(=O)O1 (stereo not given in full) gave composite z-score of 0.705

The recorded composite z-score for "CN(C)C(=O)[C@]1(Cc2ccccc2)N=C(c2ccc(OCCCO)cc2)O[C@@H]1c1ccccc1CN=[N+]=[N-]" is 0.591

For "CC(C)[Si](C#CCCc1ccccc1)(O[C@H](c1ccccc1)c1cn(Cc2ccccc2)nn1)C(C)C" the compound record lists composite z-score as -0.496

For reference, reported composite z-score for C=CCC(OC(C)=O)[C@@H]1[C@@H](N(Cc2cc3ccccc3o2)C(=O)c2cccc3ccccc23)c2cc(OCCCO)ccc2N1C(=O)c1ccc2ccccc2n1 (stereo not given in full) stands at 0.317

Looking up "Cc1ccc(S[C@]2(C(=O)NC(C)C)CC(=O)N(C3CCCCC3)[C@@H]2c2ccc(CO)cc2I)cc1" , I found its composite z-score recorded as 0.547

Lab note: measured composite z-score of "CCCNC(=O)[C@@]1(Sc2ccc(C)cc2)CC(=O)N(Cc2ccccc2Cl)[C@@H]1c1ccc(CO)cc1I" was 0.864

Measured composite z-score of C[C@@H]1NC(=O)C([C@@H](C)OCc2ccccc2)NC(=O)[C@@]23C(=O)N[C@@H](Cc4ccccc4)C2[C@H](C)[C@@]2(C)O[C@H]2C3/C=C/C/C=C\CNC1=O (stereo not given in full) : -0.751

Kindly note the recorded composite z-score for CCC(CC)C(O)C1C=CC2C(=O)N(c3ccccc3)C(=O)C2N1Nc1ccccc1F (stereo not given) , which is 0.481
